B1: MMP1 (parent)
chain: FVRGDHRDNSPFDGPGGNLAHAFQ

Variants of: B1
test name: protein stability index of a GFP-peptide fusion (GPS, HEK-293T) (PSI 1-6); higher = more stable;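 also: lentivirally expressed fusions sorted by FACS into six bins by GFP to DsRed ratio, PSI derived from sequencing read proportions per bin multiplied by bin number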
condition summary: c terminus: a fixed tail appended
experimental readout: protein stability index
// return a plain number; no unit text

As a guide, the following entries are already answered.
1. Q24K = 1.6
2. P15K = 1.94

Reported protein stability index for P15G was 1.61

Reported protein stability index for N9G was 1.38

Reported protein stability index for G16N was 1.69

Where do the numbers come from? From the supplement of paper PMC10567573.
